TARGET OR SYSTEM: SARS-CoV-2 PLpro (Severe acute respiratory syndrome coronavirus 2, UniProt P0DTD1)
Construct: containing 60 nM papain-like protease
RUN DESCRIPTION: biochemical
CONDITION SUMMARY: 60 nM papain-like protease, 50 μM Z-RLRGG-AMC, pH 7.5, 37° C.; read-out: SARS-CoV-2 PLpro IC50
pIC50: −log10 of the molar value. Where a name gives a salt, the structure may show the parent alone.
Please respond with reported pIC50 for every item in the list.

Query string: Read the entry COc1cc([C@@H](C)NC(=O)c2cc(N3CCN(C)CC3)ccc2C)ccc1O and write its reported pIC50.
Result string: > 5.30

Query string: Read the entry Cc1nnc(-c2cccc([C@@H](C)NC(=O)c3cc(N4CCN(C)CC4)ccc3C)c2)s1 and write its reported pIC50.
Result string: > 5.70

Query string: Read the entry COc1ccc([C@@H](C)NC(=O)c2cc(N3CC4(CNC4)C3)ccc2C)cc1OC and write its reported pIC50.
Result string: > 4.70

Query string: Read the entry Cc1ccc(N2CCN(S(C)(=O)=O)CC2)cc1C(=O)N[C@H](C)c1cccc2ccccc12 and write its reported pIC50.
Result string: < 4.00

Query string: Read the entry CC(=O)N1CCN(c2ccc(C)c(C(=O)N[C@H](C)c3cccc4ccccc34)c2)CC1 and write its reported pIC50.
Result string: > 5.00

Query string: Read the entry Cc1ccc(-c2cccc(S(=O)(=O)N3CCNCC3)c2)cc1C(=O)N[C@H](C)c1cccc2ccccc12 and write its reported pIC50.
Result string: > 4.00

Query string: Read the entry CCn1cc(-c2cccc([C@@H](C)NC(=O)c3cc(N4CCN(C)CC4)ccc3C)c2)cn1 and write its reported pIC50.
Result string: > 5.70

Query string: Read the entry COc1ccc([C@@H](C)NC(=O)c2cc(C3CCN(C)CC3)ccc2C)cc1-c1cnn(C)c1 and write its reported pIC50.
Result string: > 5.70

Query string: Read the entry Cc1ccc(N2CCN(C)CC2)cc1C(=O)N[C@H](C)c1cccc(-c2cncnc2)c1 and write its reported pIC50.
Result string: > 5.00

Query string: Read the entry COc1cc([C@@H](C)NC(=O)c2cc(N3CCN(C)CC3)ccc2C)ccc1OCCN1CCOCC1 and write its reported pIC50.
Result string: > 5.70

Query string: Read the entry Cc1ccc(N2CCN(C)CC2)cc1C(=O)N[C@H](C)c1ccc(F)c(-c2cnn(C)c2)c1 and write its reported pIC50.
Result string: > 5.70

Query string: Read the entry COc1ccc([C@@H](C)NC(=O)c2cc(N3CC4(CCNCC4)C3)ccc2C)cc1-c1cnn(C)c1 and write its reported pIC50.
Result string: > 5.70

Query string: Read the entry Cc1ccc(-c2ccncc2)cc1C(=O)N[C@H](C)c1cccc2ccccc12 and write its reported pIC50.
Result string: > 4.70

Query string: Read the entry Cc1ccc(N2CCN(C)CC2)cc1C(=O)N[C@H](C)c1cc(OC(F)F)cc(-c2cnn(C)c2)c1 and write its reported pIC50.
Result string: > 5.70

Query string: Read the entry COC(=O)CCN1CCN(c2cccc(C(=O)N[C@H](C)c3cccc4ccccc34)c2)CC1 and write its reported pIC50.
Result string: > 4.00

Query string: Read the entry Cc1ccc(N2CCN(C)CC2)cc1C(=O)N[C@H](C)c1cccc(F)c1 and write its reported pIC50.
Result string: > 4.70

Query string: Read the entry C[C@@H]1CN(c2ccc(Cl)c(C(=O)N[C@H](C)c3cccc4ccccc34)c2)C[C@H](C)N1 and write its reported pIC50.
Result string: > 5.30

Query string: Read the entry Cc1ccc(N2CCN(C)CC2)cc1C(=O)N[C@H](C)c1cccc(-c2cc[nH]n2)c1 and write its reported pIC50.
Result string: > 5.70

Query string: Read the entry COc1ccc([C@@H](C)NC(=O)c2cc(N3C[C@H]4C[C@@H]3CN4C)ccc2C)cc1Br and write its reported pIC50.
Result string: > 5.70

Query string: Read the entry CNCCN(C)C(=O)c1ccc(-c2cccc([C@@H](C)NC(=O)c3cc(N4CCN(C)CC4)ccc3C)c2)cc1 and write its reported pIC50.
Result string: > 5.70

Query string: Read the entry COc1ccc([C@@H](C)NC(=O)c2cc(N3CCN(C)CC3)ccc2C)cc1F and write its reported pIC50.
Result string: > 5.00

Query string: Read the entry Cc1ccc(N2CCN(C)CC2)cc1C(=O)N[C@H](C)c1cc(O)cc(-c2cnn(C)c2)c1 and write its reported pIC50.
Result string: > 5.70

Query string: Read the entry Cc1ccc(N2CCN(C)CC2)cc1C(=O)N[C@H](C)c1ccc(OC(F)(F)F)c(-c2cnn(C)c2)c1 and write its reported pIC50.
Result string: > 5.70

Query string: Read the entry Cc1ccc(N2CCN(C3CC3)CC2)cc1C(=O)N[C@H](C)c1cccc2ccccc12 and write its reported pIC50.
Result string: > 5.70

Query string: Read the entry Cc1ccc(N2CCN(C)CC2)cc1C(=O)N[C@H](C)c1cccc(-c2ccc(N)nc2)c1 and write its reported pIC50.
Result string: > 5.70

Query string: Read the entry COc1cc(Br)cc([C@@H](C)NC(=O)c2cc(N3C[C@H]4C[C@@H]3CN4C)ccc2C)c1 and write its reported pIC50.
Result string: > 5.70

Query string: Read the entry Cc1ccc(N2CCN(C)CC2)cc1C(=O)N[C@H](C)c1cccc(-c2cc(CO)cc(CO)c2)c1 and write its reported pIC50.
Result string: > 5.70

Query string: Read the entry Cc1ccc(N2CCN(C)CC2)cc1C(=O)N[C@H](C)c1cccc(-c2ccc(C3CCNCC3)cc2)c1 and write its reported pIC50.
Result string: > 5.70

Query string: Read the entry Cc1ccc(N2CCN(C)CC2)cc1C(=O)N[C@H](C)c1cccc(-c2ccc(CNC3CCCC3)s2)c1 [Example 78, Dihydrochloride Salt] and write its reported pIC50.
Result string: > 5.70

Query string: Read the entry COc1cc(-c2cn(C)nc2C)cc([C@@H](C)NC(=O)c2cc(N3CC4CNCC4C3)ccc2C)c1 (stereo partly shown) and write its reported pIC50.
Result string: > 5.70

Query string: Read the entry Cc1ccc(N2CCN(C)CC2)cc1C(=O)N[C@H](C)c1cc(OC(C)C)cc(-c2cnn(C)c2)c1 and write its reported pIC50.
Result string: > 5.70
